A collection of compounds and their measured DC50
Biological target: AR protein (Homo sapiens, UniProt P10275)
Construct: endogenous in cells; host or cells: VCaP
Sequence (P10275 1-920): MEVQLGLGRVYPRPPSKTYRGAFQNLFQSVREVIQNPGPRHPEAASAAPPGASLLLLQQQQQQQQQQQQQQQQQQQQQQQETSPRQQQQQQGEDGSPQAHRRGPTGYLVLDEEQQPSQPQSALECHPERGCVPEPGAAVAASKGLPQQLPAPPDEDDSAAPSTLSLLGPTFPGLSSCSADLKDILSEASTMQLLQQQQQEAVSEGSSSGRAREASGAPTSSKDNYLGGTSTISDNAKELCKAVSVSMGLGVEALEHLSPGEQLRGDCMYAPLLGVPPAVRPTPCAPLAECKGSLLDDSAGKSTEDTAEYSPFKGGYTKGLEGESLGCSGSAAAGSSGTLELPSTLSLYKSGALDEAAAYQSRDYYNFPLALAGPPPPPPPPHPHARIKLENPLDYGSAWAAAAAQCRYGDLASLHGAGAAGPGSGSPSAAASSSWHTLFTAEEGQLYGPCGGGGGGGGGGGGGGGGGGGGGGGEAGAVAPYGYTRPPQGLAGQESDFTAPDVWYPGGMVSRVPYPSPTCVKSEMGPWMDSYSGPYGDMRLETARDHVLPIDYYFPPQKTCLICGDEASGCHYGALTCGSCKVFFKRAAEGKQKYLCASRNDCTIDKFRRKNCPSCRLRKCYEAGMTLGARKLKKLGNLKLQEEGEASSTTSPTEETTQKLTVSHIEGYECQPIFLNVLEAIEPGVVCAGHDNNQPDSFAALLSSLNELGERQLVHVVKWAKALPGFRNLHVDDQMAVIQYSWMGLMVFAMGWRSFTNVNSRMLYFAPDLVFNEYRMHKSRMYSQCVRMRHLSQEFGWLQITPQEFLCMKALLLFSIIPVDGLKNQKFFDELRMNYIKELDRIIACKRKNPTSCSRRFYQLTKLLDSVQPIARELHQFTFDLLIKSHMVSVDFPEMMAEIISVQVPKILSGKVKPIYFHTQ
Experiment: Western blotting analysis of AR protein levels in VCaP cells, band quantification, DC50/DC90
Assay type: cell-based
Conditions: VCaP cells, Table 6; read-out: VCaP DC50
Method: The appropriate cell line, e.g., prostate cancer LNCaP, Vcap, or 22RV1 cell line, was treated with Compounds of the Disclosure as indicated. The treated cells were lysed with RIPA buffer. […] GAPDH was used as a loading control. Bands were quantified with ImageJ software. […] The DC50 values were produced from Prism 8, and the DC90 values were calculated with an equation=Bottom+(Top−Bottom)/(1+10^((Log EC50−X)*HillSlope) based on DC50 and Hillslope values.

Illustrative cases are given below, each with its answer.
Form entry - test system: AR protein (Homo sapiens, UniProt P10275); read-out: DC50; compound: C[C@H]1CC2(CCN(c3ccc(C(=O)N4CCN(C5CCN(c6ccc7c(c6)C(=O)N(C6CCC(=O)NC6=O)C7=O)CC5)CC4)cn3)CC2)CN1c1ccc(C#N)c(Cl)c1 (stereo partly shown) [Cpd. No. 509]
< 1 nM

For AR protein (Homo sapiens, UniProt P10275), provide DC50 of C[C@H]1CC2(CCN(c3ccc(C(=O)N4CCC(CN5Cc6cc7c(cc6C5)C(=O)N(C5CCC(=O)NC5=O)C7=O)CC4)nn3)CC2)CN1c1ccc(C#N)c(Cl)c1 (stereo partly shown) please.
< 1 nM

Please provide the recorded DC50 for C[C@H]1CC2(CCN(c3ccc(C(=O)N4CCN(CC5CN(c6ccc7c(c6)C(=O)N(C6CCC(=O)NC6=O)C7=O)C5)CC4)cc3)CC2)CN1c1ccc(C#N)c(Cl)c1 (stereo partly shown) , tested on AR protein (Homo sapiens, UniProt P10275).
< 1 nM

Further cases:
Look up DC50 with AR protein (Homo sapiens, UniProt P10275) for this compound: C[C@H]1CC2(CCN(c3ccc(C(=O)N4CCC(CN5Cc6cc7c(cc6C5)C(=O)N(C5CCC(=O)NC5=O)C7=O)CC4)cc3F)CC2)CN1c1ccc(C#N)c(Cl)c1 (stereo partly shown)
< 1 nM

Please tell me: DC50 of C[C@H]1CC2(CCN(c3ccc(C(=O)N4CCN(C5CCN(c6ccc7c(c6)C(=O)N(C6CCC(=O)NC6=O)C7=O)CC5)CC4)cn3)CC2)CN1c1ccc(C#N)c(Cl)c1 (stereo partly shown) [Cpd. No. 508] , system AR protein (Homo sapiens, UniProt P10275)?
< 1 nM

Record lookup: for AR protein (Homo sapiens, UniProt P10275), what DC50 belongs to C[C@H]1CC2(CCN(c3ccc(C(=O)N4CCN(C5CCN(c6ccc7c(c6)C(=O)N(C6CCC(=O)NC6=O)C7=O)CC5)CC4)cc3F)CC2)CN1c1ccc(C#N)c(Cl)c1 (stereo partly shown) [Cpd. No. 519] ?
< 1 nM

Which measured DC50 belongs to C[C@H]1CC2(CCN(c3cnc(C(=O)N4CCC(CN5CCN(c6cc7c(cc6F)C(=O)N(C6CCC(=O)NC6=O)C7=O)CC5)CC4)cn3)CC2)CN1c1ccc(C#N)c(Cl)c1 (stereo partly shown) , tested on AR protein (Homo sapiens, UniProt P10275)?
1 to 10 nM
